Reference source for all entries: patent US20260355166A1

experiment_summary: Pharmacokinetic Studies in Rats
Type: in vivo, brown Norway rats
assay_context: rat, 0.5 mg/kg IV, plasma; read-out: 0.5 MPK IV arm CL
measured_endpoint: clearance (mL/min/kg)
Please give a number only; it is taken to be in mL/min/kg.

Query: What does the data say about its clearance? Entry: COc1cc(C)c2[nH]ccc2c1CN1CCC2(CC(F)(F)C2)CC12CCc1cc(C(=O)O)ccc12 (single isomer, unassigned) [Example 1 isomer 1]
Result: 1.3
